Origin of values: BigSolDB 2.1

measurement.parameters: in sec-butanol, 293.15 K
reported.metric: solubility (mole fraction)

Problem: Determine from records and report solubility (mole fraction) for CCOC(=O)[C@@H](N)CCc1ccccc1.Cl
Solution: 0.00614

====

measurement.parameters: in acetone, 313.15 K
reported.metric: solubility (mole fraction)
Respond using a number only.

Problem: Determine from records and report solubility (mole fraction) for CCOC(=O)[C@@H](N)CCc1ccccc1.Cl
Solution: 0.00297

====

measurement.parameters: in isobutanol, 293.15 K
reported.metric: solubility (mole fraction)
Respond using a number only.

Problem: Determine from records and report solubility (mole fraction) for CCOC(=O)[C@@H](N)CCc1ccccc1.Cl
Solution: 0.014

====

measurement.parameters: in n-butanol, 283.15 K
reported.metric: solubility (mole fraction)
Respond using a number only.

Problem: Determine from records and report solubility (mole fraction) for CCOC(=O)[C@@H](N)CCc1ccccc1.Cl
Solution: 0.0128

====

measurement.parameters: in methyl acetate, 283.15 K
reported.metric: solubility (mole fraction)
Respond using a number only.

Problem: Determine from records and report solubility (mole fraction) for CCOC(=O)[C@@H](N)CCc1ccccc1.Cl
Solution: 4e-05

====

measurement.parameters: in isopropanol, 323.15 K
reported.metric: solubility (mole fraction)
Respond using a number only.

Problem: Determine from records and report solubility (mole fraction) for CCOC(=O)[C@@H](N)CCc1ccccc1.Cl
Solution: 0.0286

====

measurement.parameters: in isopropanol, 283.15 K
reported.metric: solubility (mole fraction)
Respond using a number only.

Problem: Determine from records and report solubility (mole fraction) for CCOC(=O)[C@@H](N)CCc1ccccc1.Cl
Solution: 0.00726

====

measurement.parameters: in 1,4-dioxane, 313.15 K
reported.metric: solubility (mole fraction)
Respond using a number only.

Problem: Determine from records and report solubility (mole fraction) for CCOC(=O)[C@@H](N)CCc1ccccc1.Cl
Solution: 0.00845

====

measurement.parameters: in sec-butanol, 303.15 K
reported.metric: solubility (mole fraction)
Respond using a number only.

Problem: Determine from records and report solubility (mole fraction) for CCOC(=O)[C@@H](N)CCc1ccccc1.Cl
Solution: 0.00846

====

measurement.parameters: in dichloromethane, 288.15 K
reported.metric: solubility (mole fraction)

Problem: Determine from records and report solubility (mole fraction) for CCOC(=O)[C@@H](N)CCc1ccccc1.Cl
Solution: 0.0233

====

measurement.parameters: in dichloromethane, 283.15 K
reported.metric: solubility (mole fraction)

Problem: Determine from records and report solubility (mole fraction) for CCOC(=O)[C@@H](N)CCc1ccccc1.Cl
Solution: 0.0172

====

measurement.parameters: in n-pentanol, 303.15 K
reported.metric: solubility (mole fraction)
Respond using a number only.

Problem: Determine from records and report solubility (mole fraction) for CCOC(=O)[C@@H](N)CCc1ccccc1.Cl
Solution: 0.0294

====

measurement.parameters: in n-butanol, 303.15 K
reported.metric: solubility (mole fraction)
Respond using a number only.

Problem: Determine from records and report solubility (mole fraction) for CCOC(=O)[C@@H](N)CCc1ccccc1.Cl
Solution: 0.022

====

measurement.parameters: in n-propanol, 323.15 K
reported.metric: solubility (mole fraction)
Respond using a number only.

Problem: Determine from records and report solubility (mole fraction) for CCOC(=O)[C@@H](N)CCc1ccccc1.Cl
Solution: 0.0679

====

measurement.parameters: in isobutanol, 323.15 K
reported.metric: solubility (mole fraction)
Respond using a number only.

Problem: Determine from records and report solubility (mole fraction) for CCOC(=O)[C@@H](N)CCc1ccccc1.Cl
Solution: 0.0472
